B1: ANKRD9 (parent)
chain: VGAAGSARQELLGDRPRWQRLLGE

- Variants of: B1
- assay protocol: protein stability index of a GFP-peptide fusion (GPS, HEK-293T) (PSI 1-6); higher = more stable;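 also: lentivirally expressed fusions sorted by FACS into six bins by GFP to DsRed ratio, PSI derived from sequencing read proportions per bin multiplied by bin number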
- assay conditions: c terminus: a fixed tail appended
measurement type: protein stability index
One number for each entry.

Here's what some known entries look like.
Task item: Given the variant VGAAGSDRQELLGDRPRWQRLLGE [A7D] , what is its reported protein stability index?
Reply: 3.65

Task item: Given the variant VGAAGSARQEKLGDRPRWQRLLGE [L11K] , what is its reported protein stability index?
Reply: 3.69

Task item: Given the variant VGAAGSARQELLGDRPRWQRLCGE [L22C] , what is its reported protein stability index?
Reply: 3.35

Task item: Given the variant VGAAGSARVELLGDRPRWQRLLGE [Q9V] , what is its reported protein stability index?
Reply: 3.14

Task item: Given the variant VGAAGSARQGLLGDRPRWQRLLGE [E10G] , what is its reported protein stability index?
Reply: 2.55

Task item: Given the variant VGAAVSARQELLGDRPRWQRLLGE [G5V] , what is its reported protein stability index?
Reply: 2.9

Kindly give each listed record's protein stability index.
1. VGAAGSARQELLGDWPRWQRLLGE [R15W]
2. VGAAGSARQELLGDEPRWQRLLGE [R15E]
3. VGAAGSARQELLGIRPRWQRLLGE [D14I]
4. LGAAGSARQELLGDRPRWQRLLGE [V1L]
5. VGAAGSARQELLGDRPRWQRLDGE [L22D]

Reply:
3.1
3.27
2.56
2.86
4.11

Kindly give each listed record's protein stability index.
1. VGAAGSARQEGLGDRPRWQRLLGE [L11G]
2. VGAAGSARQELLGDRPRWQRLLGR [E24R]
3. VGTAGSARQELLGDRPRWQRLLGE [A3T]

Reply:
[3.43, 3.26, 3.14]

Kindly give each listed record's protein stability index.
1. VGAAGSARQELQGDRPRWQRLLGE [L12Q]
2. VGAAGFARQELLGDRPRWQRLLGE [S6F]
3. VGGAGSARQELLGDRPRWQRLLGE [A3G]
4. VGAAGHARQELLGDRPRWQRLLGE [S6H]
5. VGAQGSARQELLGDRPRWQRLLGE [A4Q]

Reply:
3.27
2.85
3.49
2.88
4.11

Kindly give each listed record's protein stability index.
1. VGAAGSARQELLGDRPRWQRLQGE [L22Q]
2. VGAAGSARQVLLGDRPRWQRLLGE [E10V]

Reply:
3.64
3.25
